test: Acute Toxicity Study; type: in vivo; conditions: rat, in vivo; intravenous
Metric: LD50 at 168 h (mg/kg)
One number for each entry, in mg/kg.

Problem: Which LD50 at 168 h is reported for this molecule? Cc1nc(OCCCCCN2CCCCC2)cc(-c2ccc(F)cc2)n1.Cl
Solution: 22.8

These measurements were taken from patent US5945426A.
